FYI, the data here is from ChEMBL document CHEMBL1641589.

# Test system: HepG2
# ASSAY METHOD TEXT: Cytotoxicity against human HepG2 cells after 3 days by XTT assay
# Format: functional, cell-based
# MEASUREMENT CONTEXT: HepG2, 72 h
pIC50: −log10 of the molar value.
Recorded pIC50, one value per entry.
MEASUREMENT LABEL: pIC50

COMPOUND	STUDY SYSTEM	MEASUREMENT LABEL	RESULT OPERATOR	DATA VALUE
OC[C@H]1O[C@@H](n2ccc3c(-c4ccoc4)ncnc32)[C@H](O)[C@@H]1O	HepG2	pIC50	=	5.76
CCOC(=O)[C@H](C)NP(=O)(OC[C@H]1O[C@@H](n2ccc3c(-c4cccc5c4oc4ccccc45)ncnc32)[C@H](O)[C@@H]1O)Oc1ccccc1 (some centres not stated)	HepG2	pIC50	<	5.00
OC[C@H]1O[C@@H](n2ccc3c(-c4ccco4)ncnc32)[C@H](O)[C@@H]1O	HepG2	pIC50	=	6.33
C[C@H](NP(=O)(OC[C@H]1O[C@@H](n2ccc3c(-c4cccs4)ncnc32)[C@H](O)[C@@H]1O)Oc1ccccc1)C(=O)OCc1ccccc1 (some centres not stated)	HepG2	pIC50	=	6.06
C[C@H](NP(=O)(OC[C@H]1O[C@@H](n2ccc3c(-c4ccco4)ncnc32)[C@H](O)[C@@H]1O)Oc1ccccc1)C(=O)OCc1ccccc1 (some centres not stated)	HepG2	pIC50	=	6.21
C[C@H](NP(=O)(OC[C@H]1O[C@@H](n2ccc3c(-c4cccc5c4oc4ccccc45)ncnc32)[C@H](O)[C@@H]1O)Oc1ccccc1)C(=O)OCc1ccccc1 (some centres not stated)	HepG2	pIC50	<	5.00
COC(=O)[C@H](C)NP(=O)(OC[C@H]1O[C@@H](n2ccc3c(-c4ccsc4)ncnc32)[C@H](O)[C@@H]1O)Oc1ccccc1 (some centres not stated)	HepG2	pIC50	<	5.00
